# System: LOX IMVI melanoma
# ASSAY_PROTOCOL: NCI-60 one-dose screen, 48 h
# PROTOCOL_CONDITIONS: 10 µM unless noted
The panel holds about 83,000 compounds, 20% with a hit somewhere; the sample as a whole holds those more often. The source made the active and inactive calls. The calls were made as follows: active = growth percent below 10; inactive = the rest.
Could you please pick one outcome from this set? active, inactive

For orientation, consider the following solved cases.
CN(C)c1ccc(/C=N/NC(=O)COc2cc(=O)n(C)c3ccccc23)cc1    inactive
COc1cc(/C=C/c2nc(Nc3ccc(S(=O)(=O)Nc4cc(C)on4)cc3)c3ccccc3n2)ccc1O    inactive
COc1cc2c(cc1OC)-c1ccc3cc4c(cc3c1N(CCN(C)C)C2)OCO4    active

IN: I'd appreciate the recorded outcome for CCCCNC(=O)c1cc(NCc2cc(O)ccc2O)ccc1O from this test.
OUT: inactive

IN: I'd appreciate the recorded outcome for COc1cc(NC(=O)c2cccc(-c3cc(=O)c4c(OC)c(OC)c(OC)cc4o3)c2)cc(OC)c1OC from this test.
OUT: inactive

IN: I'd appreciate the recorded outcome for O=C1Nc2ccccc2/C1=N/N=C/c1ccc(OC2OC(CO)C(O)C(O)C2O)cc1 (stereo unspecified) from this test.
OUT: inactive

* * *

# System: 786-0 renal
# ASSAY_PROTOCOL: NCI-60 one-dose screen, 48 h (100 = growth as untreated, 0 = no growth, -100 = all killed)
# PROTOCOL_CONDITIONS: 10 µM unless noted
# Description: Cells are grown in 96 well plates and exposed to the test compound for 48 hours. Compounds are tested at a single concentration, which is 10^-5 M for most compounds. The reported endpoint is percent growth (GI% or GIPRCNT), where numbers from 0 - 100% represent growth inhibition, and numbers from -100% - 0 represent cell death. For example, a value of 40 represents 60% growth inhibition. A value of 0 means no net growth occurred over the course of the experiment. […]
About 83,000 compounds went through this panel and 20% of them were active in at least one assay; those are over-represented in the sample as a whole.
VALUE_TYPE: growth (%)
Return type: number; implicit unit %.

Worked cases, answers included:
N#Cc1c(N)n2c(nc1=Nc1ccc([N+](=O)[O-])cc1)sc1cc(Cl)ccc12    109
O=c1oc2ccc(Cl)cc2cc1-c1cs/c(=N/N=C\c2ccc(Cl)cc2)n1/N=C/c1ccc(Cl)cc1    97.9
Cc1c2c(cn1Cc1ccccc1)CCc1cn(C)nc1-2    81.8

IN: Give the value of growth reported for the following: Nc1c(C(=O)c2ccccc2)nnc2ncnn12
OUT: 97.2

* * *

# Tested on: UO-31 renal
# ASSAY_PROTOCOL: NCI-60 one-dose screen, 48 h (100 = growth as untreated, 0 = no growth, -100 = all killed)
# PROTOCOL_CONDITIONS: 10 µM unless noted
The panel holds about 83,000 compounds, 20% with a hit somewhere; the sample as a whole holds those more often.
VALUE_TYPE: growth (%)
Return type: number; implicit unit %.

Worked cases, answers included:
Cc1ccc(NSc2ccccc2[N+](=O)[O-])cc1    33.1
C=C(C)C1CCC(=C)C2CCC3(C)OC12/C=C(/COC(C)=O)CCC3O (stereo unspecified)    92.7
CCOc1cccnc1/C=N/NC(N)=S    9.56
CN(C)S(=O)(=O)n1cnc([C@@H]2[C@@H]3C(=O)OC[C@@H]3C[C@]23N=CN(Cc2ccccc2)C3=O)c1    92.1
CCN(CC)S(=O)(=O)c1ccc(O)c(NC(=O)c2[nH]c(C)c(C(C)=O)c2CCc2ccc(Cl)cc2)c1    23.5
O=C(CC12CC3CC(CC(C3)C1)C2)NCCOCCOCCOCCNC(=O)c1cc2c(o1)C(=O)c1ccccc1C2=O    -68.5
CCN(CC)c1ccc(Nc2ccc(CC(=O)c3ccccc3)cc2)cc1    71.5
O=C(/C=C/C12c3ccccc3C(c3ccccc31)C1C(=O)N(c3ccc(Cl)cc3)C(=O)C12)c1ccccn1 (stereo unspecified)    -98.5

IN: Give the value of growth reported for the following: C[C@@H]1C(=O)N(C[C@@H](Cc2ccccc2)NC(=O)OCc2ccccc2)[C@]1(Cc1ccccc1)C(=O)OCc1ccccc1
OUT: 8.74

IN: Give the value of growth reported for the following: COc1ccc(/C(C)=N/NS(=O)(=O)c2ccc(C)cc2)cc1OC
OUT: 103

IN: Give the value of growth reported for the following: COc1cccc(-c2cnco2)c1OCc1c(C)c(COc2c(OC)cccc2-c2cnco2)c(C)c(COc2c(OC)cccc2-c2cnco2)c1C
OUT: 30.8

IN: Give the value of growth reported for the following: Cc1cccc(-c2cc(O)c(C(=O)N3CCOCC3)s2)c1
OUT: 58.3

IN: Give the value of growth reported for the following: C/C(=N\NC(N)=S)c1nc2ccc(Cl)cc2[nH]1
OUT: 41.9

IN: Give the value of growth reported for the following: CN(C)c1ccc2cc(-c3ccc(Cl)c(Cl)c3)c(N)nc2c1
OUT: 33.2

IN: Give the value of growth reported for the following: CN(C)c1ccc2cc(-c3ccccc3F)c(N)nc2c1
OUT: 34

IN: Give the value of growth reported for the following: CC1(C)C(=O)/C(=C\c2cccnc2)C[C@]2(C)[C@H]3CC=C4[C@@H]5C[C@@](C)(C(=O)O)CC[C@]5(C)CC[C@@]4(C)[C@]3(C)CC[C@@H]12
OUT: 84.2

* * *

In this section we review reported growth values for a set of compounds.
# Tested on: EKVX NSCLC
# ASSAY_PROTOCOL: NCI-60 one-dose screen, 48 h (100 = growth as untreated, 0 = no growth, -100 = all killed)
# PROTOCOL_CONDITIONS: 10 µM unless noted
# Experimental: Growth inhibition of the EKVX human Non-Small Cell Lung tumor cell line is measured as a screen for anti-cancer activity. Cells are grown in 96 well plates and exposed to the test compound for 48 hours. Compounds are tested at a single concentration, which is 10^-5 M for most compounds. The reported endpoint is percent growth (GI% or GIPRCNT), where numbers from 0 - 100% represent growth inhibition, and numbers from -100% - 0 represent cell death. […]
The panel holds about 83,000 compounds, 20% with a hit somewhere; the sample as a whole holds those more often.
Return type: number; implicit unit %.

Worked cases, answers included:
Cc1cc2c(F)c(Oc3ncnc(Nc4ccc(N5C[C@@H](C)N[C@@H](C)C5)cc4)c3C#N)cc(F)c2[nH]1    78.7
O=C(c1ccccc1)c1ccc(N2C(=O)C3C4c5ccccc5C(/C=C/C(=O)c5ccccn5)(c5ccccc54)C3C2=O)cc1 (centres undefined)    27.9
NC(=O)CC1(O)C=C(Br)C(=O)C(Br)=C1    91.4

IN: Give the value of growth reported for the following: Cc1cc(-c2ccccc2)cc(SC#N)[n+]1[O-]
OUT: 26.2

* * *

# Tested on: NCI-H226 lung
# ASSAY_PROTOCOL: NCI-60 one-dose screen, 48 h
# PROTOCOL_CONDITIONS: 10 µM unless noted
Compounds without any hit were thinned out: in the full panel of roughly 83,000, 20% have a hit. The source made the active and inactive calls. The calls were made as follows: active = growth percent below 10; inactive = the rest.
Could you please pick one outcome from this set? active, inactive

C#CC[C@H](N)C(=O)O    inactive
COc1cc(C(=O)Nc2cc(O)c(CC=C(C)C)c(O)c2)cc2c1O[C@]1(C)CC[C@@H](O)C(C)(C)[C@H]1C2    inactive

Next:
IN: I'd appreciate the recorded outcome for Cc1ccc(Nc2ccc(Nc3ccc(C)cc3S(=O)(=O)O)c3c2C(=O)c2ccccc2C3=O)c(S(=O)(=O)O)c1 from this test.
OUT: inactive

* * *

# Test system: DU-145 prostate
# ASSAY_PROTOCOL: NCI-60 one-dose screen, 48 h (100 = growth as untreated, 0 = no growth, -100 = all killed)
# PROTOCOL_CONDITIONS: 10 µM unless noted
Compounds without any hit were thinned out: in the full panel of roughly 83,000, 20% have a hit.
In this section we review reported growth values for a set of molecules.
Return type: number; implicit unit %.

Worked cases, answers included:
CNC1(C#N)CCN(Cc2ccccc2)CC1    113
Cc1[nH]c(-c2nc3ccccc3[nH]2)c(C)c1C(=O)N1CCOCC1    107
O=C(/C=C/C12c3ccccc3C(c3ccccc31)C1C(=O)N(c3ccc(Cl)cc3)C(=O)C12)c1ccccn1 (stereo not given)    -86.5
CCCCCCCC/C=C\CCCCCCCC(=O)Oc1cccc2cccnc12    78.5

Please turn your attention to the following entry.
IN: Give the value of growth reported for the following: O=S(=O)(Nc1ccsc1-c1nc(-c2ccccc2)no1)c1cc(Cl)cc(Cl)c1
OUT: 101

* * *

# System: HCC-2998 colon
# ASSAY_PROTOCOL: NCI-60 one-dose screen, 48 h
# PROTOCOL_CONDITIONS: 10 µM unless noted
Compounds without any hit were thinned out: in the full panel of roughly 83,000, 20% have a hit. Active and inactive are the calls of the source. How the source made its calls: active means growth percent below 10; inactive means the rest.
Could you please pick one outcome from this set? YES (active), NO (inactive)

For orientation, consider the following solved cases.
O=C(Nc1ccccc1)c1sc(-c2cccc(C(F)(F)F)c2)cc1O    NO
CN1CCC(=C2c3ccccc3C=Cc3ccccc32)CC1    NO
CC(=O)Nc1ccc2c(c1)Cc1c(F)cccc1-2    NO

Next:
IN: I'd appreciate the recorded outcome for CCNCCNc1cc(C2CCCC2)c(C#N)c2nc3ccccc3n12 from this test.
OUT: NO

Origin of the recorded values: PubChem BioAssay (NCI)
